Test system: UACC-257 melanoma
Test: NCI tumour cell line growth inhibition, 48 h; in the data active means GI50 below about 0.43 µM; inactive means the rest
Hi! Could you answer with just one of these? yes (1) = active, no (0) = inactive

Please state the recorded outcome for this molecule: "O=[N+]([O-])O.[Cu+2].[NH-]CC[NH-].[NH-]CC[NH-]"
no (0)

Let us now turn to Fc1ccc2c(c1)C1=NN(c3ccccc3)C(F)C1CO2 (stereo unspecified)
no (0)

Let us now turn to "C=C1C(=O)O[C@H]2[C@H]1CC/C(COC(=O)NCc1cn(C)c3ccccc13)=C\CC[C@@]1(C)O[C@@H]21"
no (0)

Let us now turn to "COc1cnc2c(c1)C(=O)c1c-2n(CCCn2ccnc2)c(=O)c2cc(F)ccc12"
yes (1)

Let us now turn to C=C1CCC2C3(C)COC(c4ccc(N(C)C)cc4)OC3CCC2(C)C1C/C=C1/C(=O)OCC1O (stereo unspecified)
no (0)

Let us now turn to "FC(F)(F)c1ccc(Nc2nc(-c3c(C(F)(F)F)nc4ccccn34)cs2)cc1"
no (0)
